- Tested on: 786-0 renal
- measurement.notes: NCI tumour cell line growth inhibition, 48 h
Reported values of TGI for individual entries
Please reply with the bare figure in µM and do not write the unit itself.

Sample answers from the record:
given.smiles | scale.unit | value
COc1ccc(CCc2cc(OC)c(OC)c(OC)c2)cc1 | µM | 69.1
N=C1C=C(N)C(=O)c2[nH]c(=O)ccc21 | µM | 3.48
CC1(C)CC[C@]2(C(N)=O)CC[C@]3(C)C(=CC[C@@H]4[C@@]5(C)C/C(=C/c6ccncc6)C(=O)C(C)(C)[C@@H]5CC[C@]43C)[C@@H]2C1 | µM | 7.62

Okay, next one:
Looking for the measured TGI of Oc1[nH]c2cc(Cl)ccc2c1/C=c1/ccc2c(c1)N=C(c1cc(F)cc(F)c1)N=2 , can you help?
12.8

###

- System: SF-268 CNS
- measurement.notes: NCI tumour cell line growth inhibition, 48 h
metric: TGI

molecule | TGI
Cc1ccc(C(C)C)cc1NC(=O)Nc1ccc([N+](=O)[O-])cc1 | 12.1 µM
c1ccc(-c2nnn(CCN3CCCCC3)n2)cc1 | > 100 µM
CN1CCN(c2nc(-c3ccncc3)nc3sc4c(c23)CCCCCC4)CC1 | 20.7 µM
COc1c(C)c(C/C=C(\C)CC/C=C(\C)CCC=C(C)C)c(OC)c(OC)c1OC | > 100 µM
CCOC(=O)C(=O)C(=O)NN(C)C1=NCCN1 | > 100 µM

Find TGI (SF-268 CNS) for the entry CCOP(=O)(OCC)C(C)(CC)NC(=O)C(C(F)(F)F)C(F)(F)F (stereo not given)
> 100 µM

###

- Test system: MCF7 breast
- measurement.notes: NCI tumour cell line growth inhibition, 48 h
The compounds listed here are annotated with their TGI.

compound | TGI
CC1CC/C(=C\c2ccc(Cl)cc2)c2nc(N)c(C#N)c(-c3ccc(Cl)cc3)c21 (stereo unspecified) | > 100 µM
COc1ccc2nc3ccccc3c(NCCCCN(C)CCCl)c2c1 | 0.172 µM
CC(C)OC1OC(CO)C(O)CC1n1cc(F)c(=O)[nH]c1=O (stereo unspecified) | > 100 µM
OCNCCNc1nc2ccccc2c2[nH]c3ccccc3c12 | 4.5 µM
CCOC(=O)C(=O)C(=O)NN(C)C1=NCCN1 | > 100 µM

Look at this compound and give its reported TGI. O=c1cc(NCc2ccncc2)[nH]c(=O)[nH]1
> 100 µM

###

- Tested on: SNB-75 CNS
- measurement.notes: NCI tumour cell line growth inhibition, 48 h
Known TGI of a selection of compounds
Response body: numeric value in µM, unit text excluded.

compound | TGI (µM)
COc1nc(NC2OC(COC(C)=O)C(OC(C)=O)C(OC(C)=O)C2OC(C)=O)c(-c2csc(N)n2)c(=O)n1C (stereo not given) | 51.8
COc1cc2cc3c4c(cc(OC)c(OC)c4c2cc1OC)CCN3C(=O)CCC(=O)NCCCN(C)C | 53.2

For CC/C=C\C/C=C\C[C@H](O)C/C=C1/C(=O)C=C[C@@H]1C/C=C\CCCC(=O)OC , what is its reported TGI?
24.6

###

- Test system: IGROV1 ovarian
- measurement.notes: NCI tumour cell line growth inhibition, 48 h
metric: TGI

molecule | TGI
CCN(CC)c1ccc2cc(-c3nc4ccccc4c(=O)[nH]3)c(=N)oc2c1 | > 100 µM
O=c1c2ccccc2oc2ccc(OCCCCCCN3CCCCCC3)cc12 | 17.5 µM
CC(=O)Oc1ccc(/C=N/NC(N)=S)nc1 | 26.8 µM

Which TGI value belongs to CC(C)(C)C1CC[C@H](O)[C@H]([C@H](O)CC2CC(=O)N(c3ccccc3)C(=O)C2)C1 (stereo not given in full) ?
> 100 µM

Again, but for N=C1C=C(N)C(=O)c2[nH]c(=O)ccc21
3.39 µM

What do we get for CC(=O)O[C@H]1CC[C@@]2(C)[C@H](CC[C@@H]3[C@@H]2CC[C@]2(C)[C@@H](c4ccc(=O)oc4)C[C@H]4O[C@]342)C1 ?
11.3 µM

What would you report for N[C@@H]1CCCC[C@@H]1N.O=P([O-])([O-])CN(CP(=O)([O-])[O-])CP(=O)([O-])[O-].[Pt+2] ?
> 100 µM

Note, next up: COC(=O)C1=C(O)C(C(=O)OC)[C@]2(O)[C@H](C(=O)OC)[C@H]1C[C@@H](c1ccc([N+](=O)[O-])cc1)[C@H]2C(=O)OC (stereo not given in full)
30.5 µM

And then CS(=O)(=O)NC12CCC(c3ccccc31)c1ccccc12 , what is it?
> 100 µM

Input CCOC(=O)C1(C(F)(F)F)N=C(CC)OC(N2CCOCC2)=N1 (stereo not given)
> 100 µM

Same question for C#CCN(Cc1ccc2nc(N)[nH]c(=O)c2c1)c1ccc(C(=O)NC(CCC(=O)O)C(=O)O)cc1 (stereo not given) please.
> 100 µM

Try OCNCCNc1nc2ccccc2c2[nH]c3ccccc3c12 next.
7.31 µM

###

# reported TGI; entries follow
- Test system: SF-268 CNS
- measurement.notes: NCI tumour cell line growth inhibition, 48 h

// solved cases for TGI follow
molecule | TGI
CC(C)C1(O)C(=O)N(c2c(F)c(F)c(F)c(F)c2F)C(=S)N1CCSc1ccccc1 (centres undefined) | 33.2 µM
CSc1nc(NC(C)C)c2c(n1)Sc1nc3ccccc3n1C2O (centres undefined) | > 100 µM

// lookup TGI for CC(C)OC1OC(CO)C(O)CC1n1cc(F)c(=O)[nH]c1=O (centres undefined)
> 100 µM

###

- Test system: MDA-MB-231 breast
- measurement.notes: NCI tumour cell line growth inhibition, 48 h
Classification field: Met = TGI at or over 20 µM; Not met = TGI under 20 µM.

Field: example entries. Status: answers known.
compound | target.desc | label.value
CC1COCC(C)N1C1=C(Cl)C(=O)c2ccccc2C1=O (stereo not given) | MDA-MB-231 breast | Not met
CC1CC2(C)CC(=O)C1C1C(=O)N(CCN3CCCCC3)C(=O)C12 (stereo not given) | MDA-MB-231 breast | Met
CCCNc1ncnc2[nH]ncc12 | MDA-MB-231 breast | Met

Now let's try a different one.
Quick check: does Oc1ccc(Cl)cc1Cc1cc(Cl)ccc1O have TGI greater than or equal to 20 µM?
Not met

###

Measured TGI, listed per entry for reference.
- System: XF 498 CNS
- measurement.notes: NCI tumour cell line growth inhibition, 48 h
API: value field is a number in µM; no unit string.

What value of TGI has been reported for the following compound? C[C@]12CC[C@H](OC3CCCCO3)CC1=CC[C@@H]1C2CC[C@]2(C)/C(=N/O)CCC12 (stereo not given in full)
68.6

###

Entries and their measured TGI follow.
- System: HOP-18 NSCLC
- measurement.notes: NCI tumour cell line growth inhibition, 48 h

Recorded results for 4 compounds are shown here.
compound | target.desc | TGI
C/C(CC(=O)N(C(C)C)C(C)C)=N\NC(=O)c1ccncc1 | HOP-18 NSCLC | > 100 µM
Cc1csc(NC(=NCCN2CCOCC2)Nc2nc(C)cs2)n1 | HOP-18 NSCLC | > 100 µM
O=S(=O)(c1ccc(O)c(C=Nc2ccc(Cl)cc2)c1)c1ccc(O)c(C=Nc2ccc(Cl)cc2)c1 | HOP-18 NSCLC | > 100 µM
COC(=O)/C(=N/NC(N)=O)C(C(=O)OC)C(=O)C(=O)Nc1ccc(Cl)cc1 (stereo not given) | HOP-18 NSCLC | > 100 µM

What TGI value was documented for this compound, FC1OC2OC1C(OCc1ccccc1)C(OCc1ccccc1)C2OCc1ccccc1 (stereo not given) ?
96.4 µM

###

- Test system: UACC-257 melanoma
- measurement.notes: NCI tumour cell line growth inhibition, 48 h
# GI50 values compiled below

compound | target.desc | value
CO[C@]1(CN2CCN3CCCC[C@@H]3C2)/C=C/C[C@H](C)[C@@H](C)S(=O)(=O)NC(=O)c2ccc3c(c2)N(C[C@@H]2CC[C@H]21)C[C@@]1(CCCc2cc(Cl)ccc21)CO3 | UACC-257 melanoma | 2.82 µM

Query: GI50; subject: CC1(C)OC2C(COS(N)(=O)=O)SC(n3cnc4cncnc43)C2O1 (stereo not given)
> 100 µM

Can you check CC1CC2(C)CC(=O)C1C1C(=O)N(CCN3CCCCC3)C(=O)C12 (stereo not given) next?
> 100 µM

# repeat for O=C(Nc1cccc(-n2cc(-c3ccncc3)c(-c3ccc(O)c(Cl)c3)n2)c1)c1cccc(C(F)(F)F)c1
8.15 µM

For CC1COCC(C)N1C1=C(Cl)C(=O)c2ccccc2C1=O (stereo not given) then?
1.6 µM

###

- System: A498 renal
- measurement.notes: NCI tumour cell line growth inhibition, 48 h
Parameter TGI: see the listing below.
Only the number, expressed in µM, is required.

Recorded results for 4 compounds are shown here.
compound | scale.unit | value
O=C(c1ccco1)N(C(=S)OC12CC3CC(CC(C3)C1)C2)c1ccccc1 | µM | 84.6
CC1=NN(C(=O)c2ccccc2O)C(=O)/C1=C/c1cccc([N+](=O)[O-])c1 | µM | 0.801
CCC(CC(C)C)Nc1ccc(NC(CC)CC(C)C)cc1 (configuration not stated) | µM | 95.8
Nc1ccc(S(=O)(=O)Nc2cnc3c(Cl)cccc3n2)cc1 | µM | 597

Now take the following compound into account.
Requested field: TGI. Item: CC(C)(C)OC(=O)n1cc(C2CN(O)C(=O)C23CCC(=O)N3Cc2ccccc2)c2ccccc21 (configuration not stated)
74.8
